experimental-system: ratAChE (Rattus norvegicus, UniProt P37136)
Construct: AChE from 5% rat cortex homogenate or human erythrocytes (Sigma Co.); from tissue; host or cells: 5% rat cortex homogenate
Sequence (P37136 32-614): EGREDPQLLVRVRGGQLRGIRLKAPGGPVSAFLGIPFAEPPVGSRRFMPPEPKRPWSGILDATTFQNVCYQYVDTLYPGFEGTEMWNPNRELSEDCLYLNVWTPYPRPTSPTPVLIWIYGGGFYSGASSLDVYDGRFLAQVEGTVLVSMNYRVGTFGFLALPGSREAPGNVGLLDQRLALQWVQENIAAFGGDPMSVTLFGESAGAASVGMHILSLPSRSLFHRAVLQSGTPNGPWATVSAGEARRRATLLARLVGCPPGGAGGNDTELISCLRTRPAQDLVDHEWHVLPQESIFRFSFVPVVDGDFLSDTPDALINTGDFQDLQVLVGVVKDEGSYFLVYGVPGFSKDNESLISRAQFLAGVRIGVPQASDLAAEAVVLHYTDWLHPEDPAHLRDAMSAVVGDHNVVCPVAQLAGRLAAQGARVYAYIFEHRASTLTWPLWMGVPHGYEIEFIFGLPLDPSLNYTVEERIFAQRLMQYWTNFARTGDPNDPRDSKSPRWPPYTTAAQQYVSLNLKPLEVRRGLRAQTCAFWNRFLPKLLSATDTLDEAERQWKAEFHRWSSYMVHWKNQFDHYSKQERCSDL
experimental-protocol: biochemical
experimental-parameters: from 5% rat cortex homogenate; read-out: IC50 ± SD ratAChE
property-label: pIC50
Value format note: pIC50 is -log10 of concentration (mol/L); just state the number.

compound="O=c1cc(-c2ccc(OCCCCCN3CCC(Cc4ccccc4)CC3)cc2)oc2cc(OCCCCCN3CCC(Cc4ccccc4)CC3)cc(O)c12 [Compound 10m]" reported_measurement=5.89
compound="O=C1CC(c2ccc(O)cc2)Oc2cc(OCCCCN3CCCCC3)cc(O)c21 (stereo not shown)" reported_measurement=5.17
compound="O=C1CC(c2ccc(OCCCCN3CCC(Cc4ccccc4)CC3)cc2)Oc2cc(OCCCCN3CCC(Cc4ccccc4)CC3)cc(O)c21 (stereo not shown)" reported_measurement=5.89

Then this compound:
**Q:** Report pIC50 for CCN(CCCCOc1cc(O)c2c(c1)OC(c1ccc(O)cc1)CC2=O)Cc1ccccc1OC (stereo not shown) please.
**A:** 5.70
